Measured values drawn from ChEMBL document CHEMBL4513216 for this set.

# Measurement notes: Toxicity liver stage against HepG2, at 10uM
# Assay type: cell-based
# Parameters: test concentration 10 uM, cell line HepG2-A16-CD81EGFP
# Cond: human, HepG2-A16-CD81EGFP cells; read-out: INHIBITION
Measured attribute: cytotoxicity at 10 µM (%)
State the answer as a number, implicitly in %.

[ask] Bench note: what cytotoxicity at 10 µM did O=C(Nc1ccccc1OCCc1ccccn1)N1CCOCC1 show?
[reply] 3.18

[ask] Same question for CCN1CCC(NC(=O)CN2CCc3c(nc(C4CC4)n3C)C2)CC1 please.
[reply] -10.2

[ask] Same question for O=C(O)CCNC(=O)N1CCc2c([nH]c3ccc(Cl)cc23)C1 please.
[reply] 11.9

[ask] Same question for O=C(c1coc2ccccc12)N1CCCC(O)(CO)CC1 (stereo unspecified) please.
[reply] 6.41

[ask] Same question for CO[C@@H]1CCN(c2ncc(F)cn2)[C@@H]2CN(CC3CC3)C[C@@H]21 please.
[reply] 12.3

[ask] Same question for CC(=O)N1CCCC(C(=O)NCc2noc(Cc3ccccc3)n2)C1 (stereo unspecified) please.
[reply] 3.02

[ask] Same question for CCOc1ccnc(N2CCN(C(=O)c3ccoc3C)CC2)n1 please.
[reply] -0.463

[ask] Same question for O=S(=O)(c1ccccc1)N1C[C@@H]2CCN[C@@H]2C1 please.
[reply] 2.58

[ask] Same question for CC1CCCCN1S(=O)(=O)NCCNC(=O)c1ncccc1O (stereo unspecified) please.
[reply] 2.34

[ask] Same question for COc1ccc(C(CNC(=O)Nc2cn[nH]c2)N2CCOCC2)cc1 (stereo unspecified) please.
[reply] 1.3

[ask] Same question for COCCNC(=O)CN1CCC(N2CCN(C)C2=O)CC1 please.
[reply] 0.621

[ask] Same question for COc1ccc(NC(=O)C2CC(=O)N(C)C2)cn1 (stereo unspecified) please.
[reply] -16.5

[ask] Same question for CCN(CC)c1nc2ccsc2c(=O)n1CCC(=O)NC1CCCC1 please.
[reply] 7.19

[ask] Same question for CC(NC(=O)CNCCn1cccn1)c1ccc2c(c1)CCCC2 (stereo unspecified) please.
[reply] -11.4

[ask] Same question for CC(C)c1nnc2n1CC(CNCc1nnc(C(C)(C)C)o1)CC2 (stereo unspecified) please.
[reply] -21.6

[ask] Same question for COc1cccc(CN(Cc2ncc[nH]2)Cc2ccco2)c1 please.
[reply] -8.01

[ask] Same question for Cc1ccsc1-c1nccn1CCN1CCCOC1=O please.
[reply] -4.68

[ask] Same question for C1CCC(c2nnc3sc(C4CCOC4)nn23)C1 (stereo unspecified) please.
[reply] -2.16

[ask] Same question for Cc1ccc(CC(=O)Nc2ccc(CS(C)(=O)=O)c(F)c2)cc1 please.
[reply] -2.77

[ask] Same question for CCC(=O)N1CCCN(Cc2cc(F)cc(Br)c2)CC1 please.
[reply] 10.3

[ask] Same question for Cc1noc(C)c1-c1nc(C2CCCN(C(=O)CN)C2)ccc1CO (stereo unspecified) please.
[reply] -3.11

[ask] Same question for CC(Nc1ccc(N2C(=O)CCCC2=O)cc1)c1ccc(C#N)cc1 (stereo unspecified) please.
[reply] 8.71

[ask] Same question for CC(C)CN1CCC2(CC1)C(=O)Nc1ccc(C(=O)N(C)C)cc12 please.
[reply] -1.18

[ask] Same question for O=S(=O)(c1ccccc1)N1CCC2(CCCN2Cc2cccnc2)C1 (stereo unspecified) please.
[reply] -73.5

[ask] Same question for Cc1ccnn1CCC(=O)N1C[C@@H](O)[C@H](Oc2cccc(F)c2)C1 please.
[reply] -15.8

[ask] Same question for Cn1cnc(S(=O)(=O)N2CCO[C@H]3[C@H](OCC4CC4)CC[C@@H]32)c1 please.
[reply] 8.31

[ask] Same question for CC1(C(=O)N2CCOCC2)CN(C2CCCCC2)CCO1 (stereo unspecified) please.
[reply] -22.3

[ask] Same question for Fc1ccc(N2CCN(CCCc3cn[nH]c3)CC2)cc1 please.
[reply] -144

[ask] Same question for CCOCc1nc2c(c(NC(COC)c3ccccn3)n1)CCNCC2 (stereo unspecified) please.
[reply] -3.21

[ask] Same question for CCOC(C)c1nc(Cn2cc(C)cn2)cs1 (stereo unspecified) please.
[reply] 5.52

[ask] Same question for CCN1CCC2(CC1)NC(=O)c1cc(Br)ccc1-n1nnnc12 please.
[reply] 1.47
